- Tested System: Cytochrome P450 2C9 (Homo sapiens) (UniProt P11712)
- Sequence (P11712 whole entry, looked up): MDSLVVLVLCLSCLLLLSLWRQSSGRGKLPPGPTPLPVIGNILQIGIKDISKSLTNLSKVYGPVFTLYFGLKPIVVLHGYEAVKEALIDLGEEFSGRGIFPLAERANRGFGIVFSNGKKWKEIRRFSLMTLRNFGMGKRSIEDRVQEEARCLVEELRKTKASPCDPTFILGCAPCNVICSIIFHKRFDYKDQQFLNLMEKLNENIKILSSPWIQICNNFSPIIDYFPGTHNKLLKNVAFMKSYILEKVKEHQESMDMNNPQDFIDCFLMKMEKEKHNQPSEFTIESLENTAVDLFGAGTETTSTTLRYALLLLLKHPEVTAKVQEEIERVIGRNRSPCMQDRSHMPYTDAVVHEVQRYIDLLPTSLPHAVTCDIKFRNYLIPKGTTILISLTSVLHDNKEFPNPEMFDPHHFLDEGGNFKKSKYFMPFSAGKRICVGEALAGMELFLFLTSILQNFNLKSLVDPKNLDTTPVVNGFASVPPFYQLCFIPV
- Protocol Description: Cytochrome panel assay with activity outcomes
- Assay Setup: recombinant CYP, pro-luciferin dealkylation, luminescence, p450-cyp2c9; series mostly up to 57.1 µM
About 4,000 (25%) of roughly 16,000 compounds were called active. About 26% were inconclusive and are not listed. Only a sample is shown.
Reported Endpoint: AC50

Solved cases below.
Cc1c(C(=O)NC2CCCc3ccccc32)oc2ccc(S(=O)(=O)N3CCOCC3)cc12 (stereo not given) :: 7.08 µM (active)
Cc1cc(C(C)(C)CC(C)(C)C)ccc1OCCOCC[N+](C)(C)Cc1ccccc1 :: inactive
N[C@H](CCCP(=O)(O)O)C(=O)O :: inactive
Cc1cc(C)c(C)c(S(=O)(=O)ON2C(=O)c3ccccc3C2=O)c1C :: inactive
CN(C)CCC=C1c2ccccc2C=Cc2ccccc21 :: inactive
COc1ccc(CC(=O)Nc2cccc(-c3nnc(-c4ccco4)o3)c2)cc1 :: 0.316 µM (active)
Cc1ccccc1C1C(C#N)=C2N=C(N)c3c(sc4c3CCCCC4)N2C2=C1C(=O)CC(C)(C)C2 (stereo not given) :: 3.55 µM (active)
NC(=O)CNCCC(c1ccccc1)c1ccccc1 :: inactive

Field request: AC50 | item: `CCCn1c(C)nc2c(c1=O)c1nc3ccccc3nc1n2CCC1=CCCCC1` 5.62 µM (active)

Would you mind doing CCC(Sc1nc2cc3c(cc2c(=O)n1Cc1ccco1)OCO3)C(=O)Nc1ccccc1OC (stereo not given) as well? 0.631 µM (active)
